This section presents compounds with their documented growth inhibition values.
ASSAY_PROTOCOL: NCI Yeast Anticancer Drug Screen. Data for the sgs1 mgt1 strain (AID 161);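 also: 0% = growth of cultures given vehicle only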
PROTOCOL_CONDITIONS: S. cerevisiae sgs1 mgt1 strain, at 50.0 µM, active compounds read high
This is part of a sample that, as a whole, favours compounds with a hit. Of some 79,000 tested, about 15% had one in any assay.
Write down the numeric answer in % and omit the unit.

1. N#Cc1cnn(-c2ccc([N+](=O)[O-])cc2)c1N: 3.85
2. Cc1cccc(Cl)c1NC1=NCCN1C(=O)CC(=O)c1ccccc1: 1.1
3. CC(=O)Nc1ccc(C(O)/C(=N/N)c2nc3ccc(Cl)cc3[nH]c2=O)cc1 (stereo unspecified): -6
4. CCCNS(=O)(=O)c1nc2ccccc2s1: -5.6
5. O=C(OCc1ccccc1)C1CC1 (tested in a mixture with another compound): 15.4

Qu. Entry "O=C1CCCCCC1" : reported growth inhibition = ?
Ans. 11.2

Qu. Entry NC(=O)c1[nH]nc(C2OC(CO)C(O)C2O)c1O (stereo unspecified) : reported growth inhibition = ?
Ans. 7.35

Qu. Entry "CN(C)CCC(c1ccccc1)c1ccccc1" : reported growth inhibition = ?
Ans. 13.7

Qu. Entry "N#Cc1c2c(n3c1[nH]c(=O)c1ccccc13)CCCC2" : reported growth inhibition = ?
Ans. 23.9

Qu. Entry "COc1cc(/C=C2\N=C(C)OC2=O)ccc1O" : reported growth inhibition = ?
Ans. 5.7

Qu. Entry "Nc1ncnc2nc(I)[nH]c12" : reported growth inhibition = ?
Ans. -4.55

* * *

ASSAY_PROTOCOL: NCI Yeast Anticancer Drug Screen. Data for the bub3 strain (AID 167)
PROTOCOL_CONDITIONS: S. cerevisiae bub3 mutant strain, at 50.0 µM, active compounds read high
The panel holds about 79,000 compounds, 15% with a hit somewhere; the sample as a whole holds those more often. Active and inactive are the calls of the source. No stated cut-off is given here; in the data, active means growth inhibition above about 70%; inactive means the rest.
ASSAY_ENDPOINT: growth inhibition

Below, 3 compounds whose answers are already recorded.
1. COc1ccccc1NC=O: -7.4% (inactive)
2. O=C(OCC(OC(=O)c1ccccc1)C(OC(=O)c1ccccc1)C(O)C(O)CO)c1ccccc1 (stereo unspecified) (tested in a mixture with another compound): -12.2% (inactive)
3. CN1C(=O)C=C(C=Nc2ccc(-c3ccccc3)cc2)C2CCCCC21 (stereo unspecified): 11.5% (inactive)

Qu. Entry "CCOC(=O)CC(=O)CC" : reported growth inhibition = ?
Ans. -6.45% (inactive)

Qu. Entry "c1ccc(NP2(Nc3ccccc3)=NP(Nc3ccccc3)(Nc3ccccc3)=NP(Nc3ccccc3)(Nc3ccccc3)=N2)cc1" : reported growth inhibition = ?
Ans. 17.1% (inactive)

Qu. Entry "OCCNCN(CNCCO)c1nc(N(CNCCO)CNCCO)nc(N(CNCCO)CNCCO)n1" : reported growth inhibition = ?
Ans. 2.8% (inactive)

Qu. Entry "COc1ccc(NC(=O)CC(=O)N/N=C(/C)c2cc3cc(N=Nc4ccccc4Cl)ccc3oc2=O)cc1" : reported growth inhibition = ?
Ans. -11.8% (inactive)

Qu. Entry "CC(C)NC(=O)Nc1ccccc1Cl" : reported growth inhibition = ?
Ans. -11.8% (inactive)

Qu. Entry "Cn1ncc2c(=S)[nH]c(=O)[nH]c21" : reported growth inhibition = ?
Ans. 1.05% (inactive)

Qu. Entry "COc1c(O)ccc(C(=O)O)c1N" : reported growth inhibition = ?
Ans. 8.95% (inactive)

Qu. Entry "CCC(=O)Oc1ccc(CCC(C)=O)cc1OC" : reported growth inhibition = ?
Ans. -2.3% (inactive)

Hello, the source for this data is PubChem BioAssay (NCI), in case you need it.
